Biological target: 5-HT1A receptor (Rattus norvegicus, UniProt P19327)
Sequence (P19327 whole entry): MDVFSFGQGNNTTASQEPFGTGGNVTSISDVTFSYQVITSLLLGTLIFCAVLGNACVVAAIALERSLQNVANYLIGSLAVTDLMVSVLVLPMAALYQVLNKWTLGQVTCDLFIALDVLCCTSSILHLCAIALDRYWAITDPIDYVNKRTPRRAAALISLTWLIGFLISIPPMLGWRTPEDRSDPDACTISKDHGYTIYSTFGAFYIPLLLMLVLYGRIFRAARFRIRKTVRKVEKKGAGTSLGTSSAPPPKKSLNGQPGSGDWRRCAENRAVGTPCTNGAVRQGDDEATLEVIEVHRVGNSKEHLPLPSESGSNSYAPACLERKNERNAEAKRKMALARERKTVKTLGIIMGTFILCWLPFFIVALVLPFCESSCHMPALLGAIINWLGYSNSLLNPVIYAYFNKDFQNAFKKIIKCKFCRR
Assay: Inhibition of 5-MeO-DMT-induced 5-HT syndrome in rats
Format: in vivo, rat (male Wistar)
Parameters: Male Wistar rats (Mol:Wist) weighing 170-240 g are used; from tissue; host or cells: living male Wistar rat (Mol:Wist) (in vivo, endogenous receptor)
Details: sc, 5-MeO-DMT 5 mg/kg s.c., inhibition of piano playing
observation_type: ED50 (µmol/kg)
State just the number; it will be interpreted in µmol/kg.

Solved cases (4 shown):
Query :: I'd like to know its ED50. The compound in question is "O=S(=O)(CCCN1CCN(c2cccc3c2OCCO3)CC1)C1CCCCC1"
Result :: 2.3

Query :: Field entry: [O-][S+](CCCN1CCN(c2cccc3c2OCCO3)CC1)C1CCCCC1 (stereo not shown)
Result :: 5.2

Query :: Field entry: "O=C1N(CCCN2CCN(c3cccc4c3OCC4)CC2)CCN1c1ccccc1"
Result :: 10

Query :: Field entry: "O=C1N(CCN2CCN(c3cccc4[nH]ccc34)CC2)CCN1C1CCCC1"
Result :: 2.7

***
Query :: I'd like to know its ED50. The compound in question is "O=C1N(CCN2CCN(c3cccc4c3OCCO4)CC2)CCN1C1CCCC1"
Result :: 8.9

Query :: Field entry: "O=C1N(CCN2CCN(c3cccc4c3OCC4)CC2)CCN1C1CCCC1"
Result :: 28
